# measured target: human TdT (Homo sapiens, UniProt P04053)
# Construct: purchased Trevigen (Gaithersburg, MD)
# Sequence (P04053 whole entry): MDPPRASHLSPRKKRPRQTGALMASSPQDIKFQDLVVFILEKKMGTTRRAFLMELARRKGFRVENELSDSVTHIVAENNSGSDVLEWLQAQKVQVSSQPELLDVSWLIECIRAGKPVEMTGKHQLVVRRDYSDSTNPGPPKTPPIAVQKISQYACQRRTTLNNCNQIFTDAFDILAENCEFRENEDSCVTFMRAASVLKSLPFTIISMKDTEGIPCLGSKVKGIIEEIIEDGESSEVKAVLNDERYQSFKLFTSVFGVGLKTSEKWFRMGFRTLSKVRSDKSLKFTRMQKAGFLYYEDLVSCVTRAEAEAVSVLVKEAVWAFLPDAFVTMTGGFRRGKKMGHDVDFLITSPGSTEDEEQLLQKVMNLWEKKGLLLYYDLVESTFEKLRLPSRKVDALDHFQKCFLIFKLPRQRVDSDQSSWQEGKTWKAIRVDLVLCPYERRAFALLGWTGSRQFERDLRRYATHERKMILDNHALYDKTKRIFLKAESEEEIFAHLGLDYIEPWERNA
# procedure details: Terminal transferase assay, TdT
# Format: biochemical
# condition: human TdT, Mn2+ as cofactor; read-out: ID50 (µM) Mn2+
parameter: IC50 (µM)

Ask: Give IC50 (human TdT (Homo sapiens, UniProt P04053)) of the following compound: O=C(/C=C(\O)C(=O)O)/C=C/c1ccn(Cc2ccc(F)cc2)c1
Reply: 6.31

(P) CCOC(=O)/C(O)=C/C(=O)/C=C/c1cc(C(=O)c2ccccc2)cn1S(=O)(=O)c1ccc(F)cc1
(Q) O=C(/C=C(\O)C(=O)O)/C=C/c1cccn1Cc1ccc(F)cc1
(R) O=C(/C=C(\O)C(=O)O)/C=C/c1cc(C(=O)c2ccccc2)cn1Cc1ccccc1
Ask: Hey, can you sort those compounds up there by IC50, smallest first? Please list the labels in the order you were asked to rank them.
Reply: Q, P, R
(Q: 1.63 µM, P: 8.75 µM, R: 16 µM)

###

# measured target: human TdT (Homo sapiens)
# Construct: purchased Trevigen (Gaithersburg, MD)
# procedure details: Terminal transferase assay, TdT
# Assay type: biochemical
# condition: human TdT, Mn2+ as cofactor; read-out: ID50 (µM) Mn2+
parameter: IC50 (µM)

Ask: Give IC50 (human TdT (Homo sapiens)) of the following molecule: O=C(/C=C(\O)C(=O)O)/C=C/c1cc(C(=O)c2ccc(F)cc2)c[nH]1
Reply: 0.58

Ask: Check O=C(O)/C(O)=C/C(=O)c1cccn1Cc1ccc(F)cc1 [Compound 10a] too.
Reply: 1.16

(1) O=C(/C=C(\O)C(=O)O)/C=C/c1cc(C(=O)c2cccc(F)c2)c[nH]1
(2) O=C(/C=C(\O)C(=O)O)/C=C/c1cc(C(=O)c2ccccc2)cn1Cc1ccc(F)cc1
Ask: Sort 1 and 2 by IC50 descending and give the first. Record your answer as the label of the chosen record.
Reply: 2
(2: 9.5 µM, 1: 0.78 µM)

###

# measured target: human TdT (Homo sapiens)
# Construct: purchased Trevigen (Gaithersburg, MD)
# procedure details: Terminal transferase assay, TdT
# Format: biochemical
# condition: human TdT, Mg2+ as cofactor; read-out: ID50 (µM) Mg2+
parameter: IC50 (µM)

In the examples that follow, each entry is paired with its recorded IC50.
Ask: Entry CCOC(=O)/C(O)=C/C(=O)/C=C/c1cc(C(=O)c2ccc(OCc3ccc4ccccc4c3)cc2)cn1Cc1ccc(F)cc1 has what IC50?
Reply: 5.83

Ask: Check O=C(/C=C(\O)C(=O)O)/C=C/c1cc(C(=O)c2ccccc2)cn1Cc1cccc2ccccc12 too.
Reply: 2.11

Ask: Check O=C(/C=C(\O)C(=O)O)/C=C/c1cc(C(=O)c2ccccc2)cn1Cc1ccc(Cl)cc1 too.
Reply: 5.1

(1) O=C(/C=C(\O)C(=O)O)/C=C/c1cc(C(=O)c2ccccc2)cn1S(=O)(=O)c1ccc(F)cc1
(2) O=C(/C=C(\O)C(=O)O)/C=C/c1cc(C(=O)c2ccccc2)c[nH]1
(3) CCOC(=O)/C(O)=C\C(=O)/C=C/c1cc(C(=O)c2ccc([N+](=O)[O-])cc2)cn1Cc1ccc(F)cc1
(4) CCOC(=O)/C(O)=C/C(=O)/C=C/c1cc(C(=O)c2ccccc2)cn1Cc1ccc(Cl)cc1
(5) COc1cc(C(=O)c2c[nH]c(/C=C/C(=O)/C=C(\O)C(=O)O)c2)cc(OC)c1OC
Ask: Hey, can you sort those compounds up there by IC50, smallest first? Please list the labels in the order you were asked to rank them.
Reply: 2, 1, 5, 3, 4
(2: 0.22 µM, 1: 0.34 µM, 5: 0.86 µM, 3: 6.54 µM, 4: 17.5 µM)

(P) COc1ccc(Cn2cc(C(=O)c3ccccc3)cc2/C=C/C(=O)/C=C(\O)C(=O)O)cc1
(Q) COc1ccc(C(=O)Nc2ccc(C(=O)c3cc(/C=C/C(=O)/C=C(\O)C(=O)O)n(Cc4ccc(F)cc4)c3)cc2)cc1Br
Ask: Sort P and Q by IC50 descending and give the first. Record your answer as the label of the chosen record.
Reply: P
(P: 2.7 µM, Q: 0.41 µM)

(1) O=C(/C=C/c1cc(C(=O)c2ccc([N+](=O)[O-])cc2)cn1Cc1ccc(F)cc1)/C=C(/O)C(=O)O
(2) CCOC(=O)/C(O)=C/C(=O)/C=C/c1cc(C(=O)c2ccccc2)cn1Cc1cccc2ccccc12
Ask: Sort 1 and 2 by IC50 descending and give the first. Record your answer as the label of the chosen record.
Reply: 2
